- testDetails: LD50 (p.o.), acute toxicity
- cond: in vivo, po
resultType: LD50

Name the recorded LD50 for O=C1CN=C(c2ccccc2F)c2cc(Cl)ccc2N1CC(O)CO (stereo not shown) .
1250 to 2500 mg/kg

Values compiled from patent US3963777A.
